- System Under Test: T1, CRBN, Q96SW2;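 further: pooled lentiviral library of zinc finger degron-EGFP fusions in mCherry-positive Jurkat cells, FACS-sorted after compound exposure, with degron abundance counted by next-generation sequencing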
- T1 chain: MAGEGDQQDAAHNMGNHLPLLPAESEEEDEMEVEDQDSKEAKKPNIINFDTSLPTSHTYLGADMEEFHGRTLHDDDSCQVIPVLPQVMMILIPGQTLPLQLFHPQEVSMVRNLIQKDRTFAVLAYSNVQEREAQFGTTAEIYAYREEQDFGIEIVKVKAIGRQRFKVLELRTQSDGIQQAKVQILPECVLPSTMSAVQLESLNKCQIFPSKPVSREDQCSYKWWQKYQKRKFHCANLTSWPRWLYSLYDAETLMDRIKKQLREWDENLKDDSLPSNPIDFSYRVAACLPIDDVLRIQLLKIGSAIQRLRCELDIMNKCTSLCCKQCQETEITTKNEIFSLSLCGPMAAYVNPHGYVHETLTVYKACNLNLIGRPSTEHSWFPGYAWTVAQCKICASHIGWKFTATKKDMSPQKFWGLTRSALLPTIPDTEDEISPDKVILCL
- Assay Overview: log2 fold change of degron read counts, EGFP-low vs EGFP+ sorted cells (limma voom), compound-induced degradation; higher = more compound-induced degradation of the degron-EGFP fusion; degrons are variants of IKZF1/3 zinc finger 2; compound dose not given here
- Experimental Context: Jurkat; 18 h; compound: compound 22 (5-morpholino-thalidomide)
In all, about 8,300 sequences were measured (“log2 fold change of degron read counts, EGFP-low vs EGFP+ sorted cells (limma voom), compound-induced degradation”: median about -1.1, highest 2% from about 3.2 on). The list comes from a sample in which the highest values are over-represented; it also holds close analogues and randomly drawn sequences.
Form field: log2 fold change of degron read counts (one value per entry).
Endpoint: log2 fold change of degron read counts

>>> observed_result("FYCEVCGATFTQKGNLLRHIKL [46F_47Y_49E_50V_52G_53A_54T_55F_67L_, Q9UKT9]")
4.14
>>> observed_result("FNCEVCGATFTQKGNLLRHIKL [46F_47N_49E_50V_52G_53A_54T_55F_67L_, Q9UKT9]")
0.0506
>>> observed_result("FRCEVCGATFTQKGNLLRHIKL [46F_47R_49E_50V_52G_53A_54T_55F_67L_, Q9UKT9]")
-1.05
>>> observed_result("FDCNVCGAMFTQKGNLLRHIKL [46F_47D_49N_50V_52G_53A_54M_55F_67L_, Q9UKT9]")
-2.06
>>> observed_result("FWCEVCGATFTQKGNLLRHIKL [46F_47W_49E_50V_52G_53A_54T_55F_67L_, Q9UKT9]")
3.75
>>> observed_result("FWCPICGREFTQKGNLLRHIKL [46F_47W_49P_50I_52G_53R_54E_55F_67L_, Q9UKT9]")
-0.132
>>> observed_result("FSCEVCGATFTQKGNLLRHIKL [46F_47S_49E_50V_52G_53A_54T_55F_67L_, Q9UKT9]")
2.4
